Please go through the items and note down their GI50.
System: SW-620
assay-comment: NCI tumour cell line growth inhibition, 48 h
The source made the active and inactive calls. No stated cut-off is given here; in the data, active = GI50 up to about 1.1 µM and inactive = higher.

Entry under review: O=C(/C=C/c1ccc([N+](=O)[O-])cc1)c1ccc(NCc2nc3ccccc3[nH]2)cc1 . Reported GI50?
2.25 µM (inactive)

Entry under review: Cc1c2c(n(CCc3ccc(Cl)cc3)c1C)NN=C(C#N)S2(=O)=O . Reported GI50?
> 100 µM (inactive)

Entry under review: COC(=O)[C@H]1N[C@@H](C(=O)OC)C23CCC[C@H]2CC[C@]1(C(OC)OC)C3 . Reported GI50?
56.2 µM (inactive)

Entry under review: C=CCn1c(=O)n(CC=C)c(=O)n(CC=C)c1=O . Reported GI50?
> 100 µM (inactive)
